Can you tell me Disease Control (%) SEPTTR-184 3DC for the items I'm about to list?
Tested on: Zymoseptoria tritici (SEPTTR-184)
Assay: Cyp51 dsRNA tile (fragment) foliar application bioassay (Example 6)
Assay type: in vivo
Conditions: 3 days curative; rate 50 ppm; average of 2 trials
One number for each entry, in %.

MgCyp51-T12: dsRNA tile of Zymoseptoria tritici Cyp51, 138 bp, location 1377-1514 (nucleic acid, listed as Zymoseptoria tritici) TGGCTACGGCCTGGTAAGCAAGGGCGCGGCGTCGCCATACTTACCCTTTGGTGCGGGACGACACAGATGTATCGGCGAGCAATTCGCGTACGTGCAATTGCAGACCATTACAGCGACGATGGTTCGCGATTTCAAGTT ... 61
MgCyp51-T8: dsRNA tile of Zymoseptoria tritici Cyp51, 242 bp, location 1151-1392 (nucleic acid, listed as Zymoseptoria tritici) TTCTGCGCAAGGTCAAGTCTCCCATGCCCATCGAAGGTACGGCATACGTCATTCCAACCACCCACACTCTTCTGGCCGCTCCGGGCACAACGAGCCGCATGGACGAGCACTTTCCCGACTGCCTCCATTGGGAGCCGCATCGATGGGACGAGAGCCCGTCCGAGAAATACAAGCACCTGTCCCCGACGACTGCCCTAGGAAGCATCGCCGAGGAGAAAGAAGACTATGGCTACGGCCTGGTA ... 73
MgCyp51-T4: dsRNA tile of Zymoseptoria tritici Cyp51, 178 bp, location 647-824 (nucleic acid, listed as Zymoseptoria tritici) AGGGCTTCGACTCGTCTTTCGCGGACCTCTACCACTACCTCGATATGGGATTCACACCGATCAACTTTATGCTTCCGTGGGCGCCCCTTCCCCAGAACCGACGCCGCGATTATGCGCAGAAGAAGATGTCCGAGACATACATGTCGATCATTCAGAAGAGACGAGAGTCCAAAACGGG ... 67
MgCyp51-T11: dsRNA tile of Zymoseptoria tritici Cyp51, 172 bp, location 775-946 (nucleic acid, listed as Zymoseptoria tritici) TCCGAGACATACATGTCGATCATTCAGAAGAGACGAGAGTCCAAAACGGGCGAACATGAGGAAGACATGATCCACAACTTGATGCAGTGCAAATACAAGGACGGCAATGCCATTCCCGACAAGGAGATTGCTCATATGATGATTGCGCTGCTCATGGCCGGCCAGCACTCTT ... 55
MgCyp51-T7: dsRNA tile of Zymoseptoria tritici Cyp51, 111 bp, location 1490-1600 (nucleic acid, listed as Zymoseptoria tritici, long dsRNA tile, purified, chemistry not given here) CGACGATGGTTCGCGATTTCAAGTTTTACAATGTGGATGGCAGCGACAACGTGGTGGGTACGGATTACAGCAGTTTGTTCAGCCGGCCGCTGTCGCCGGCAGTAGTAAAGT ... 66

For each entry beneath this line, provide reported Disease Control (%) SEPTTR-184 3DC.
1. MgCyp51-T5: dsRNA tile of Zymoseptoria tritici Cyp51, 133 bp, location 1316-1448 (nucleic acid, listed as Zymoseptoria tritici) AATACAAGCACCTGTCCCCGACGACTGCCCTAGGAAGCATCGCCGAGGAGAAAGAAGACTATGGCTACGGCCTGGTAAGCAAGGGCGCGGCGTCGCCATACTTACCCTTTGGTGCGGGACGACACAGATGTAT
2. MgCyp51-T3: dsRNA tile of Zymoseptoria tritici Cyp51, 230 bp, location 450-679 (nucleic acid, listed as Zymoseptoria tritici) CGTCAAGTACGGCCTCACAACCTCTGCCCTCCAGTCCTACGTGACCTTGATCGCCGCCGAGACCCGCCAGTTCTTCGACCGCAACAACCCTCATAAGAAGTTCGCATCGACCAGCGGCACGATCGATCTCCCACCAGCCCTCGCCGAACTTACGATCTATACTGCCAGCCGATCATTGCAAGGAAAGGAAGTCCGCGAGGGCTTCGACTCGTCTTTCGCGGACCTCTACC
3. MgCyp51-T9: dsRNA tile of Zymoseptoria tritici Cyp51, 172 bp, location 1-172 (nucleic acid, listed as Zymoseptoria tritici, double-stranded RNA) ATGGGTCTCCTCCAGGAAGTCCTCGCGCAGTTCGACGCGCAATTCGGCCAGACCAGCCTCTGGAAACTTGTCGGACTTGGATTCCTCGCCTTCAGCACGCTCGCCATCCTCCTCAATGTCCTCTCACAACTTCTCTTCCGTGGCAAGTTGTCCGATCCGCCACTCGTATTCC
4. YFP: non-target dsRNA control (YFP, yellow fluorescent protein coding region) (nucleic acid, double-stranded RNA; synthesized partial coding region) TGTAGAAATCCTTCAGCTCGGGGCCGTACTTGGCGAAGCACTGGGCGCCGTAGGTCAGGGTGGTCACCAGGGTGCTCCAGGGCACGGGCACATCGCCGGTGGTGCAGATGAACTGGGCATCCACCTTGCCCACGCTGGCATCGCCGTAGCCCTTGCCGCGGATGCTGAAGGTGTGGCCATCCACATTGCCCTCCATCTCCACCACGTAGGGGATCTTGCCGTGGAACAGCAGGGCGCCGCTGGAGCCCAT
5. MgCyp51-T1: dsRNA tile of Zymoseptoria tritici Cyp51, 232 bp, location 166-397 (nucleic acid, listed as Zymoseptoria tritici) GTATTCCACTGGGTGCCCTTCATCGGAAGCACCATCACATACGGCATCGACCCATACAAGTTCTTCTTCTCCTGTCGGGAAAAGTATGGAGATGTCTTTACATTCATCCTGCTGGGAAAGAAGACGACGGTGTGCTTGGGCACCAAGGGCAATGATTTTATTTTGAATGGAAAACTGAAGGACGTCAACGCGGAGGAGATATACAGCCCGCTGACCACTCCTGTCTTTGGCA

A)
1. 68
2. 72
3. 65
4. 19
5. 68
